# Test system: M14 melanoma
# Test: NCI tumour cell line growth inhibition, 48 h
Would you mind telling me the reported TGI of each entry?

Entry under review: O=C(/C=C/c1ccc(O)cc1)c1ccc(O)cc1 . Reported TGI?
42.7 µM

// lookup TGI for C/C(=C\CBr)CCC(Br)C(C)(C)Br (configuration not stated)
> 100 µM

Could you tell me which TGI is on file for COc1nc(NC2OC(COC(C)=O)C(OC(C)=O)C(OC(C)=O)C2OC(C)=O)c2c(OC(C)=O)cc(=O)oc2n1 (configuration not stated) ?
> 100 µM

Returns the measured TGI for the input molecule. Input: CCCOc1cc2ccccc2cc1C(=O)Nc1nc(N)c2c(ccc3nccc32)[nH]1
1.08 µM

May I ask what TGI has been recorded for O=c1[nH]c(=S)[nH]c2c1C(c1ccc([N+](=O)[O-])cc1)c1c([nH]c(=S)[nH]c1=O)O2 ?
> 100 µM

# get_value(readout='TGI', item= CC(C)(C)c1cc2ccc(C(N)=O)cc2c(=O)[nH]1 )
> 100 µM

Given the entry COC(=O)C(CCCN1C(=O)c2ccccc2C1=O)C(=O)OC , report its measured TGI.
> 100 µM

Provenance of the data: PubChem BioAssay (NCI)
